FYI, the data here is from the supplement of paper PMC6555819.

# Test system: VDR homodimer (NR concentration 270 nM)
# test.details: PBM binding z-score (relative to random genomic background probes); higher = stronger binding; sequences stand for … in GC…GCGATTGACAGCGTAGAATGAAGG
Values of PBM binding z-score greater than or equal to 0.2 map to y; values below map to n.

INSERT INTO assay_data (sequence_data, label_class) VALUES
  ('ATCGAAAGGTCGAGGTGAGTGTAGAGAAAGGGAA', 'y');

Is reported PBM binding z-score greater than or equal to 0.2 here: `TCTTGTAGATCAAGAAGGTTAAGAAAGCCTGAGT` y

Is reported PBM binding z-score greater than or equal to 0.2 here: `ACTAGCAGGCCAAGGGTCACCCAAGATTAGTCCG` y

Is reported PBM binding z-score greater than or equal to 0.2 here: `ATATGTCGGTTAAGGGTCATTCAGGTTGGTTCGC` y
